# measurement notes: Solubility at pH 6.95
# Format: physicochemical
# experimental context: buffer
measurement label: solubility (µg/mL)
Numeric answer only, unit µg/mL assumed.

Request: Fill in reported solubility for this entry: "CCCCOc1ncc(C(C)=O)cc1-c1nc(O)c2nn(Cc3nccn3C)c(CC)c2n1"
Result: 6

###

# measurement notes: Ratio of secretory flux to absorptive flux in human Caco-2 cell
# Assay type: ADME, cell-based
Measured efflux ratio of individual entries

Some molecules with known efflux ratio results, for comparison:
test smiles: CCCOc1ncc(C(C)=O)cc1-c1nc2c(CC)n(C3CN(C(C)C)C3)nc2c(=O)[nH]1
measurement label: efflux ratio
data value: 0.5

test smiles: CCCCOc1ncc(C(C)=O)cc1-c1nc2c(CC)n(C3CN(CC)C3)nc2c(=O)[nH]1
measurement label: efflux ratio
data value: 0.9

test smiles: CCCCOc1ncc(C(C)=O)cc1-c1nc2c(CC)n(C3CCN(CC)CC3)nc2c(=O)[nH]1
measurement label: efflux ratio
data value: 1

test smiles: CCCCOc1ncc(C(C)=O)cc1-c1nc(O)c2nn(Cc3nccn3C)c(CC)c2n1
measurement label: efflux ratio
data value: 1.6

test smiles: CCCc1nn(C)c2c(=O)[nH]c(-c3cc(C(C)=O)ccc3OCC)nc12
measurement label: efflux ratio
data value: 0.7

We now examine a further molecule.
Request: Fill in reported efflux ratio for this entry: "CCCc1nn(C)c2c(=O)[nH]c(-c3cc(C(=O)CN4CCOCC4)ccc3OCC)nc12"
Result: 0.8

###

# measurement notes: Clearance in dog at 0.5 mg/kg
# Assay type: ADME, organism-based, Canis lupus familiaris
# Set-up: dose 0.5 mg/kg
# experimental context: in vivo
measurement label: clearance (L/h/kg)
Numeric answer only, unit L/h/kg assumed.

Some compounds with known clearance results, for comparison:
test smiles: CCCCOc1ncc(C(C)=O)cc1-c1nc2c(CC)n(C3CCN(CC)CC3)nc2c(=O)[nH]1
data value: 2.28

test smiles: CCCOc1ncc(C(C)=O)cc1-c1nc2c(CC)n(C3CN(C(C)C)C3)nc2c(=O)[nH]1
data value: 0.78

We now examine a further compound.
Request: Fill in reported clearance for this entry: "CCCCOc1ncc(C(C)=O)cc1-c1nc2c(CC)n(C3CN(CC)C3)nc2c(=O)[nH]1"
Result: 1.05

###

Measured log10 of IC50 of individual entries
# tested target: cGMP-specific 3',5'-cyclic phosphodiesterase (Homo sapiens)
Lab note - IC50 converted to log10 from values in nM.

test smiles: CCCc1nn(C)c2c(=O)[nH]c(-c3cc(C(C)=O)ccc3OCC)nc12
tested target: cGMP-specific 3',5'-cyclic phosphodiesterase (Homo sapiens)
data value: 1.23
//
test smiles: CCCOc1ncc(C(C)=O)cc1-c1nc(O)c2nn(Cc3nccn3C)c(CC)c2n1
tested target: cGMP-specific 3',5'-cyclic phosphodiesterase (Homo sapiens)
data value: 0.43

We now examine a further molecule.
Request: Fill in reported log10 of IC50 for this entry: "CCCOc1ncc(C(C)=O)cc1-c1nc2c(CC)n(C3CCN(C)CC3)nc2c(=O)[nH]1"
Result: 1.08

###

Measured bioavailability of individual entries
# measurement notes: Oral bioavailability in dog at 0.5 mg/kg
# Type: ADME, organism-based, Canis lupus familiaris
# experimental context: in vivo
Numeric answer only, unit % assumed.

test smiles: CCCOc1ncc(C(C)=O)cc1-c1nc2c(CC)n(C3CN(C(C)C)C3)nc2c(=O)[nH]1
bioavailability / %: 91

We now examine a further molecule.
Request: Fill in reported bioavailability for this entry: "CCCCOc1ncc(C(C)=O)cc1-c1nc2c(CC)n(C3CN(CC)C3)nc2c(=O)[nH]1"
Result: 76
